system: Escherichia coli TOP10; test: shrunken log2 fold change of peptide-encoding DNA abundance (4.5 h post-induction vs induction); higher = less antimicrobial activity (less host growth inhibition); details: time post-induction: 4.5 h; library: site-saturation at positions 5, 18, 19, 20;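 note: peptides expressed intracellularly from a pBAD plasmid library in pooled LB shake-flask culture, induced with 0.3% L-arabinose, DNA abundance read by NGS, three biological replicates, DESeq2 with apeglm shrinkage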
Measured shrunken log2 fold change, listed per entry for reference.

| INPUT_SEQUENCE | shrunken log2 fold change |
| --- | --- |
| RRIRFRPPRLPRPRPRPWMEPRP | -0.706 |
| RRIRWRPPRLPRPRPRPGGQPRP | -0.0831 |
| RRIRDRPPRLPRPRPRPDIWPRP | 0.504 |
| RRIRMRPPRLPRPRPRPRFNPRP | 0.148 |
| RRIRCRPPRLPRPRPRPYPLPRP | -0.191 |
| RRIRSRPPRLPRPRPRPPRSPRP | 0.483 |
| RRIRPRPPRLPRPRPRPYWKPRP | -0.189 |
| RRIRPRPPRLPRPRPRPDGCPRP | -0.228 |
| RRIRTRPPRLPRPRPRPVAGPRP | -0.0116 |
| RRIRCRPPRLPRPRPRPAKDPRP | 0.021 |
| RRIRQRPPRLPRPRPRPVFPPRP | 0.212 |
| RRIRIRPPRLPRPRPRPICNPRP | -0.607 |
| RRIRCRPPRLPRPRPRPVCFPRP | -0.141 |
| RRIRCRPPRLPRPRPRPYISPRP | -0.637 |
| RRIRARPPRLPRPRPRPIYGPRP | 0.0455 |
| RRIRTRPPRLPRPRPRPEQVPRP | -0.00471 |
| RRIRCRPPRLPRPRPRPMQKPRP | 0.0364 |
| RRIRCRPPRLPRPRPRPYLMPRP | -0.916 |
| RRIRCRPPRLPRPRPRPGCQPRP | 0.00667 |
| RRIRQRPPRLPRPRPRPDFCPRP | -0.129 |
| RRIRPRPPRLPRPRPRPKKMPRP | 2.39 |
| RRIRERPPRLPRPRPRPPQRPRP | 0.315 |
| RRIRQRPPRLPRPRPRPLSAPRP | 0.0436 |
| RRIRCRPPRLPRPRPRPFSYPRP | -0.947 |
| RRIRYRPPRLPRPRPRPSTYPRP | -0.332 |
| RRIRNRPPRLPRPRPRPACWPRP | 0.449 |
| RRIRDRPPRLPRPRPRPEGFPRP | 0.638 |
| RRIRRRPPRLPRPRPRPLVSPRP | 0.153 |
| RRIRVRPPRLPRPRPRPRWAPRP | 0.343 |
| RRIRSRPPRLPRPRPRPGEYPRP | -0.275 |
| RRIRLRPPRLPRPRPRPKPMPRP | 0.964 |
| RRIRIRPPRLPRPRPRPISSPRP | -0.16 |
